- Test system: NCI-H322M
- assay-explanation: NCI screening panel, NCI-H322M (Non-Small Cell Lung Cancer)
- Type: cell-based, human
measurement-name: Log10GI50

• CC(C)C[C@H](NC(=O)[C@H](COC(F)F)NC(=O)[C@H](COC(F)F)NC(=O)[C@H](CCc1ccccc1)NC(=O)CN1CCOCC1)C(=O)[C@@]1(C)CO1 = −7.04
• CC(C)C[C@H](NC(=O)[C@H](COC(F)F)NC(=O)CN1CCOCC1)C(=O)N[C@@H](COC(F)F)C(=O)N[C@@H](Cc1ccccc1)C(=O)[C@@]1(C)CO1 = −6.73
• CC(C)C[C@H](NC(=O)[C@H](COC(F)F)NC(=O)CN1CCOCC1)C(=O)N[C@@H](Cc1ccccc1)C(=O)N[C@@H](Cc1ccccc1)C(=O)[C@@]1(C)CO1 = −7.12
• CC(C)C[C@H](NC(=O)[C@H](COC(F)F)NC(=O)CN1CCOCC1)C(=O)N[C@@H](Cc1ccccc1)C(=O)N[C@@H](CC(C)C)C(=O)[C@@]1(C)CO1 = −7.01
